- target_desc: Cathepsin B from bovine spleen (bovine, UniProt P07688 80-332)
- method_summary: cell-based or functional assay
metric: Cathepsin B inhibition test, 2 mM peptide
Quick one: just the number, no unit, thanks!

// returns reported Cathepsin B inhibition test, 2 mM peptide for input Ac-NQKNNN-OH [Ac-NQKNNN-OH]
147

Same again, this time with Ac-NQKNNNQNDN-OH (also: MGO-modified, site not given here) [MGO-modified Ac-NQKNNNQNDN-OH]
123

Ok, now Ac-NQKN-OH [Ac-NQKN-OH]
282

Also Ac-NQKNNNQN-OH [Ac-NQKNNNQN-OH] , if possible.
290

Field entry: Ac-Lys-Asn-OH [Ac-KN-OH]
150

Similarly, Ac-NQKN-OH (also: MGO-modified, site not given here) [MGO-modified Ac-NQKN-OH] ?
102

Next binder: Ac-NQKNNN-OH (also: MGO-modified, site not given here) [MGO-modified Ac-NQKNNN-OH]
87.5

Now the binder Ac-NQKNNNQNDN-OH [Ac-NQKNNNQNDN-OH]
254

Ok, now Ac-NQKNNNQN-OH (also: MGO-modified, site not given here) [MGO-modified Ac-NQKNNNQN-OH]
171
